Assay Remarks: Solubility in neat solvents, shake-flask with spectrophotometric determination
Assay type: physicochemical
Applied Conditions: 25 °C, organic solvent or mixture, thermodynamic from solid; neat DMP, 298.1 K

[
  {
    "Smiles Entry": "Nc1cccc(C(=O)NN=C2C(=O)Nc3ccc([N+](=O)[O-])cc32)c1",
    "solubility at 24 h [µg/mL]": 290
  },
  {
    "Smiles Entry": "O=C1Nc2ccc([N+](=O)[O-])cc2C1=NNC(=O)c1ccccc1C(F)(F)F",
    "solubility at 24 h [µg/mL]": 940
  },
  {
    "Smiles Entry": "O=C1Nc2ccc([N+](=O)[O-])cc2C1=NNC(=O)c1cccc([N+](=O)[O-])c1",
    "solubility at 24 h [µg/mL]": 80
  }
]

###

A collection of compounds and their measured solubility at 24 h
Assay Remarks: Solubility in DMSO-water binary mixtures
Assay type: physicochemical
Applied Conditions: DMSO-water binary mixture, 25 °C, aqueous with cosolvent or surfactant or cyclodextrin, thermodynamic from solid, x*DMSO 0.4, 298.1 K
Observed Property: solubility at 24 h (mg/mL)

[
  {
    "Smiles Entry": "Nc1cccc(C(=O)NN=C2C(=O)Nc3ccc([N+](=O)[O-])cc32)c1",
    "Observed Property": "solubility at 24 h",
    "Quantity Unit": "mg/mL",
    "Quantitative Result": 14.3
  },
  {
    "Smiles Entry": "O=C1Nc2ccc([N+](=O)[O-])cc2C1=NNC(=O)c1cccc([N+](=O)[O-])c1",
    "Observed Property": "solubility at 24 h",
    "Quantity Unit": "mg/mL",
    "Quantitative Result": 3.3
  },
  {
    "Smiles Entry": "O=C1Nc2ccc([N+](=O)[O-])cc2C1=NNC(=O)c1ccccc1C(F)(F)F",
    "Observed Property": "solubility at 24 h",
    "Quantity Unit": "mg/mL",
    "Quantitative Result": 261
  }
]

###

A collection of molecules and their measured solubility at 24 h
Assay Remarks: Solubility in neat solvents, shake-flask with spectrophotometric determination
Assay type: physicochemical
Applied Conditions: 25 °C, organic solvent or mixture, thermodynamic from solid; neat cyrene, 298.1 K
Observed Property: solubility at 24 h (µg/mL)

[
  {
    "Smiles Entry": "O=C1Nc2ccc([N+](=O)[O-])cc2C1=NNC(=O)c1ccccc1C(F)(F)F",
    "Quantitative Result": 1620
  },
  {
    "Smiles Entry": "O=C1Nc2ccc([N+](=O)[O-])cc2C1=NNC(=O)c1cccc([N+](=O)[O-])c1",
    "Quantitative Result": 290
  },
  {
    "Smiles Entry": "Nc1cccc(C(=O)NN=C2C(=O)Nc3ccc([N+](=O)[O-])cc32)c1",
    "Quantitative Result": 750
  }
]

###

Assay Remarks: Solubility in DMSO-water binary mixtures
Assay type: physicochemical
Applied Conditions: DMSO-water series, 25 °C, organic solvent or mixture, thermodynamic from solid, x*DMSO 1.0, 298.1 K

[
  {
    "Smiles Entry": "O=C1Nc2ccc([N+](=O)[O-])cc2C1=NNC(=O)c1cccc([N+](=O)[O-])c1",
    "solubility at 24 h [mg/mL]": 3.09
  },
  {
    "Smiles Entry": "O=C1Nc2ccc([N+](=O)[O-])cc2C1=NNC(=O)c1ccccc1C(F)(F)F",
    "solubility at 24 h [mg/mL]": 327
  },
  {
    "Smiles Entry": "Nc1cccc(C(=O)NN=C2C(=O)Nc3ccc([N+](=O)[O-])cc32)c1",
    "solubility at 24 h [mg/mL]": 21.4
  }
]
